- method: Quantitative High-Throughput drug screen in 47 multiple myeloma cell lines against the NCATS MIPE library collection: NCIH929_DSMZ cell viability assay (AID 1918978); note: nearly all actives have a fitted effect of over 35% in size
- testParameters: NCI-H929 myeloma viability, CellTiter-Glo ATP, 48 h; series mostly up to 45.8 µM
Results filed as inconclusive are left out. Activity calls are given as the source filed them. Calls come from the whole dose curve; as a rule, active = well fitted cell-killing curve with a large enough effect; inconclusive = small, poorly fitted or top-dose-only effect; inactive = no such curve, though single readings can be large or run the other way.
Answer with one of the outcomes active, inactive

molecule	group
CC1=C(C)C(=O)C(C(CCCCCC(=O)O)c2ccccc2)=C(C)C1=O (stereo not drawn)	inactive

Which outcome did this test record for the molecule CCN(CCO)CCCC(C)Nc1ccnc2cc(Cl)ccc12 (stereo not drawn) ?
inactive

Which outcome did this test record for the molecule NC(=NCc1ccccc1)NC(=O)c1nc(Cl)c(N)nc1N ?
active

Which outcome did this test record for the molecule CC[C@]1(O)C[C@H]2CN(CCc3c([nH]c4ccccc34)[C@@](C(=O)OC)(c3cc4c(cc3OC)N(C=O)[C@H]3[C@@](O)(C(=O)OC)[C@H](OC(C)=O)[C@]5(CC)C=CCN6CC[C@]43[C@@H]65)C2)C1 ?
active

Which outcome did this test record for the molecule S=c1nc[nH]c2nc[nH]c12 ?
active

Which outcome did this test record for the molecule CC1(C)NC(=O)N(c2ccc([N+](=O)[O-])c(C(F)(F)F)c2)C1=O ?
inactive

Which outcome did this test record for the molecule CC(=O)N1CCN(c2ccc(OC[C@H]3CO[C@](Cn4ccnc4)(c4ccc(Cl)cc4Cl)O3)cc2)CC1 ?
active

Which outcome did this test record for the molecule N[C@@H](Cc1cc(I)c(Oc2cc(I)c(O)c(I)c2)c(I)c1)C(=O)O ?
inactive

----------
- Tested on: CP256
- method: qHTS profiling for inhibitors of Plasmodium falciparum proliferation (AID 504749); note: nearly all actives have a fitted effect of over 60% in size
- testParameters: P. falciparum in erythrocytes, SYBR Green DNA, 72 h; series mostly up to 28.7 µM
Records with an inconclusive call do not appear. Calls of active or inactive are those of the source. Calls follow the shape of the dose curve; as a rule, active = well fitted inhibition curve with a large enough effect; inconclusive = small, poorly fitted or top-dose-only effect; inactive = flat fitted curve, though single readings scatter.

compound	measuredTarget	outcome
Cc1ncc([N+](=O)[O-])n1CC(C)O (stereo not drawn)	CP256	inactive
CN(c1nccc(=O)[nH]1)C1CCN(c2nc3ccccc3n2Cc2ccc(F)cc2)CC1	CP256	inactive
Oc1ccc(OCc2ccccc2)cc1	CP256	inactive

----------
- Tested on: CP192
- method: qHTS profiling for inhibitors of Plasmodium falciparum proliferation (AID 504749); note: nearly all actives have a fitted effect of over 60% in size
- testParameters: P. falciparum in erythrocytes, SYBR Green DNA, 72 h; series mostly up to 28.7 µM
Inconclusive results are not listed. Activity calls are given as the source filed them. Calls follow the shape of the dose curve; as a rule, active = well fitted inhibition curve with a large enough effect; inconclusive = small, poorly fitted or top-dose-only effect; inactive = flat fitted curve, though single readings scatter. Peptide text beside a SMILES is read from it.
Answer with one of the outcomes active, inactive

Example results:
compound	group
CC1=C(C)C(=O)C(C(CCCCCC(=O)O)c2ccccc2)=C(C)C1=O (centres undefined)	inactive
N=C(N)c1ccc2cc(OC(=O)c3ccc(N=C(N)N)cc3)ccc2c1	inactive
CNC[C@H](O)c1ccc(O)c(O)c1	inactive
O=C(NC(Cc1cc(=O)[nH]c2ccccc12)C(=O)O)c1ccc(Cl)cc1 (centres undefined)	inactive
Clc1ccc(C(Cn2ccnc2)OCc2ccsc2Cl)c(Cl)c1 (centres undefined)	active
Cc1nc(Nc2ncc(C(=O)Nc3c(C)cccc3Cl)s2)cc(N2CCN(CCO)CC2)n1	inactive
Cc1cccc(C)c1OCC(=O)N[C@@H](Cc1ccccc1)[C@@H](O)C[C@H](Cc1ccccc1)NC(=O)[C@H](C(C)C)N1CCCNC1=O	active
Cn1c(NCCN(CCO)CCCc2ccc([N+](=O)[O-])cc2)cc(=O)n(C)c1=O	inactive
CS(=O)(=O)OCCCCOS(C)(=O)=O	inactive
Cc1cc2c(s1)Nc1ccccc1N=C2N1CCN(C)CC1	inactive

Which outcome did this test record for the compound CCCCC(CC)COC(=O)C(C#N)=C(c1ccccc1)c1ccccc1 (centres undefined) ?
inactive

Which outcome did this test record for the compound CNC[C@@H](O)[C@@H](O)[C@H](O)[C@H](O)CO ?
inactive

Which outcome did this test record for the compound O=C(O)c1cc(=O)c2c(OCC(O)COc3cccc4oc(C(=O)O)cc(=O)c34)cccc2o1 ?
inactive

Which outcome did this test record for the compound COC(=O)[C@H](Cc1ccccc1)NC(=O)[C@@H](N)CC(=O)O (H-Asp-Phe-OMe) ?
inactive

Which outcome did this test record for the compound C[Se]CCC(N)C(=O)O (centres undefined) ?
inactive

Which outcome did this test record for the compound COc1cc(OC)c(C(=O)CCCN2CCCC2)c(OC)c1 ?
inactive

Which outcome did this test record for the compound CN(C)CCc1c[nH]c2ccc(Cn3cncn3)cc12 ?
inactive

Which outcome did this test record for the compound Cc1ncc([N+](=O)[O-])n1CC(C)O (centres undefined) ?
inactive

Which outcome did this test record for the compound O=C(NCCO[N+](=O)[O-])c1cccnc1 ?
inactive

----------
- Test system: ICS
- method: qHTS profiling for inhibitors of Plasmodium falciparum proliferation (AID 504749); note: nearly all actives have a fitted effect of over 60% in size
- testParameters: P. falciparum in erythrocytes, SYBR Green DNA, 72 h; series mostly up to 28.7 µM
Inconclusive results are not listed. Active and inactive are the calls of the source. Calls come from the whole dose curve; as a rule, active = well fitted inhibition curve with a large enough effect; inconclusive = small, poorly fitted or top-dose-only effect; inactive = flat fitted curve, though single readings scatter.
Answer with one of the outcomes yes (active), no (inactive)

compound	group
O=C1CCc2ccc(OCCCCN3CCN(c4cccc(Cl)c4Cl)CC3)cc2N1	yes
CN(C)CCc1c[nH]c2ccc(Cn3cncn3)cc12	no

Which outcome did this test record for the compound CN(C)c1ccc2nc3ccc(=[N+](C)C)cc-3sc2c1 ?
yes

Which outcome did this test record for the compound CCCCN(CCCC)CCC(O)c1cc2c(Cl)cc(Cl)cc2c2cc(C(F)(F)F)ccc12 (centres undefined) ?
yes

Which outcome did this test record for the compound NNc1nncc2ccccc12 ?
yes

Which outcome did this test record for the compound CCOc1cc(CC(=O)N[C@@H](CC(C)C)c2ccccc2N2CCCCC2)ccc1C(=O)O ?
no

Which outcome did this test record for the compound O=C(O)CCNC(=O)c1ccc(N=Nc2ccc(O)c(C(=O)O)c2)cc1 ?
no

Which outcome did this test record for the compound CCCc1cc(=O)[nH]c(=S)[nH]1 ?
no

Which outcome did this test record for the compound CCCCCCCCCCCCCCCCCCCCCCO ?
no

Which outcome did this test record for the compound COc1cc2c(cc1OC)C1CC(=O)C(CC(C)C)CN1CC2 (centres undefined) ?
no

Which outcome did this test record for the compound CCOC(=O)c1c(C)n(C)c2ccc(O)cc12 ?
no

Which outcome did this test record for the compound O=C(NC(Cc1cc(=O)[nH]c2ccccc12)C(=O)O)c1ccc(Cl)cc1 (centres undefined) ?
no

Which outcome did this test record for the compound C[C@H](Cn1cnc2c(N)ncnc21)OCP(=O)(O)O ?
no

Which outcome did this test record for the compound CS(=O)(=O)OCCCCOS(C)(=O)=O ?
no

Which outcome did this test record for the compound Cc1nc2n(c(=O)c1CCN1CCC(c3noc4cc(F)ccc34)CC1)CCCC2 ?
yes

Which outcome did this test record for the compound CCCCc1ccc2nc(NC(=O)OC)[nH]c2c1 ?
no

Which outcome did this test record for the compound C[C@]12CCC(=O)C=C1CC[C@@H]1[C@H]2[C@@H](O)C[C@@]2(C)[C@H]1CC[C@]2(O)C(=O)CO ?
no

----------
- Tested on: CP211
- method: qHTS profiling for inhibitors of Plasmodium falciparum proliferation (AID 504749); note: nearly all actives have a fitted effect of over 60% in size
- testParameters: P. falciparum in erythrocytes, SYBR Green DNA, 72 h; series mostly up to 28.7 µM
Records with an inconclusive call do not appear. Calls of active or inactive are those of the source. Calls follow the shape of the dose curve; as a rule, active = well fitted inhibition curve with a large enough effect; inconclusive = small, poorly fitted or top-dose-only effect; inactive = flat fitted curve, though single readings scatter.
Answer with one of the outcomes class 1 for active, class 0 for inactive

Example results:
molecule	group
CC1(C)CCC(C)(C)c2cc(NC(=O)c3ccc(C(=O)O)cc3)ccc21	class 0
CN(C)c1ccc2nc3ccc(=[N+](C)C)cc-3sc2c1	class 1
Nc1cccc2c1CN(C1CCC(=O)NC1=O)C2=O (stereo not drawn)	class 0

Which outcome did this test record for the molecule Nc1cc(C(Cl)=C(Cl)Cl)c(S(N)(=O)=O)cc1S(N)(=O)=O ?
class 0

Which outcome did this test record for the molecule c1ccc2[nH]c(-c3cscn3)nc2c1 ?
class 0

----------
- method: NS1 protein of Zika virus - qHTS assay to identify small molecule inhibitors in human HEK 293 cells (AID 1347053);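 note: plate controls were infected untreated cells for no effect and uninfected cells for full effect; nearly all actives have a fitted effect of over 55% in size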
- testParameters: HEK293 ZIKV MR766 infection, NS1 TR-FRET, 24 h; series mostly up to 46.1 µM
Results filed as inconclusive are left out. The source made the active and inactive calls. The call rests on the fitted dose curve; in most records, active means well fitted inhibition curve with a large enough effect; inconclusive means small, poorly fitted or top-dose-only effect; inactive means no such curve, though single readings can be large or run the other way.
Answer with one of the outcomes Yes = active, No = inactive

compound	group
Nc1nc(OCc2ccccc2)c2[nH]cnc2n1	No

Which outcome did this test record for the compound O=C(c1ccccc1)c1ccc2n1CCC2C(=O)O (configuration not stated) ?
No

Which outcome did this test record for the compound CCCc1cc(=O)[nH]c(=S)[nH]1 ?
No

Which outcome did this test record for the compound NNc1nncc2ccccc12 ?
No

Which outcome did this test record for the compound C[C@H](Cc1ccc(O)c(O)c1)[C@@H](C)Cc1ccc(O)c(O)c1 ?
No

Which outcome did this test record for the compound COCCCOc1ccnc(CS(=O)c2nc3ccccc3[nH]2)c1C (configuration not stated) ?
No

Which outcome did this test record for the compound Cc1cc(O)c2c(c1)C(=O)c1cc(O)cc(O)c1C2=O ?
No

Which outcome did this test record for the compound COc1cc2c(cc1OC)C1CC(=O)C(CC(C)C)CN1CC2 (configuration not stated) ?
No

Which outcome did this test record for the compound CC(S)C(=O)NCC(=O)O (configuration not stated) ?
No

Which outcome did this test record for the compound Nc1cccc2c1CN(C1CCC(=O)NC1=O)C2=O (configuration not stated) ?
No

Which outcome did this test record for the compound C[C@@H](c1ncncc1F)[C@](O)(Cn1cncn1)c1ccc(F)cc1F ?
No

Which outcome did this test record for the compound Cc1cccc(C#Cc2ccccc2)n1 ?
No

Which outcome did this test record for the compound C[C@]12CCC(=O)C=C1CC[C@@H]1[C@H]2[C@@H](O)C[C@@]2(C)[C@H]1CC[C@]2(O)C(=O)CO ?
No

Which outcome did this test record for the compound Cc1ccc(S(=O)(=O)NC(=O)NN2CC3CCCC3C2)cc1 (configuration not stated) ?
No
